molecular target: Indoleamine 2,3-dioxygenase 1 (Homo sapiens, UniProt P14902); assay: Inhibition of IDO1 in IFNgamma-stimulated human A375 cells assessed as reduction in L-Kyn level measured after 48 hrs by HPLC analysis
Sequence (P14902 whole entry): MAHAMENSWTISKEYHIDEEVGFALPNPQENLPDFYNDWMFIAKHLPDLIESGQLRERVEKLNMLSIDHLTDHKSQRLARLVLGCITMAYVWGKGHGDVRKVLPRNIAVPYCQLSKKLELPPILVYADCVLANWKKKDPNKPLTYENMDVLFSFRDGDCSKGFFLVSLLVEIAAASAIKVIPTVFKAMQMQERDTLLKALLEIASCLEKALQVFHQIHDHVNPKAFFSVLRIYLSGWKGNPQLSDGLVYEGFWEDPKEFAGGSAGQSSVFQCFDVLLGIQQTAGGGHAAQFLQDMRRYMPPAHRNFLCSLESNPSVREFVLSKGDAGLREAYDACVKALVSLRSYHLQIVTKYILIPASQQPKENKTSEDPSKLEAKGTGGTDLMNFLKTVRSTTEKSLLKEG
Measured Property: IC50 (nM)

O=C(NCc1cccc(Cn2cnc3ccc(Br)cc32)c1)c1cc(Br)c[nH]1 : 19
O=C(NCc1cccc(Cn2cnc3ccccc32)c1)c1cc2ccccc2[nH]1 : 72
Cc1ccc(C(=O)NCc2cccc(Cn3cnc4ccccc43)c2)cc1 : 327

[a] O=C(NCc1cccc(Cn2cnc3ccccc32)c1)c1cc2ccccc2o1
[b] O=C(NCc1cccc(Cn2cnc3ccccc32)c1)c1cc2cc(O)ccc2[nH]1
[c] N#Cc1ccc(C(=O)NCc2cccc(Cn3cnc4ccccc43)c2)cc1
In: Put these in order: smallest IC50 first, largest last. List the labels, following the order given in the request.
Out: c, a, b
(c: 90 nM, a: 413 nM, b: 781 nM)
